Tested on: Probable mesothelioma (pleural effusion)
Test: MiCK assay, drug-induced apoptosis, Table 3 tumor A2
Assay type: cell-based, human
Conditions: Table 3 tumor A2: Probable mesothelioma (pleural effusion); 48 hours with drug
RECORDED ENDPOINT: kinetic units (KU) of apoptosis
Give your result as the value with the unit written after it.

Give the measured kinetic units (KU) of apoptosis for CO[C@@]12[C@H](COC(N)=O)C3=C(C(=O)C(C)=C(N)C3=O)N1C[C@@H]1N[C@@H]12 [Mitomycin]
1.00 KU

Tell me measured kinetic units (KU) of apoptosis for COc1cc([C@@H]2c3cc4c(cc3[C@@H](O[C@@H]3O[C@@H]5CO[C@@H](C)O[C@H]5[C@H](O)[C@H]3O)[C@H]3COC(=O)[C@H]23)OCO4)cc(OC)c1O [Etoposide] please.
1.20 KU

Answer with reported kinetic units (KU) of apoptosis of CCc1c2c(nc3ccc(OC(=O)N4CCC(N5CCCCC5)CC4)cc13)-c1cc3c(c(=O)n1C2)COC(=O)[C@]3(O)CC [Irinotecan]
1.30 KU

* * *

Tested on: Lung adenocarcinoma (pleural effusion)
Assay: MiCK assay, drug-induced apoptosis, Table 4 tumor B1
Type: cell-based, human
Settings: Table 4 tumor B1: Lung adenocarcinoma (pleural effusion); 48 hours with drug
RECORDED ENDPOINT: kinetic units (KU) of apoptosis
Answer format: number, then unit.

Recall and state the measured kinetic units (KU) of apoptosis for `N.N.O=C([O-])C1(C(=O)[O-])CCC1.[Pt+2]` .
1.20 KU

Complete the entry with kinetic units (KU) of apoptosis for N.N.[Cl][Pt][Cl] [Cisplatin]
2.20 KU

Identify the reported kinetic units (KU) of apoptosis for the following entry. `N[C@@H](Cc1ccc(N(CCCl)CCCl)cc1)C(=O)O`
3.10 KU

For `Nc1ccn([C@@H]2O[C@H](CO)[C@@H](O)C2(F)F)c(=O)n1` , write its kinetic units (KU) of apoptosis.
1.10 KU

Give reported kinetic units (KU) of apoptosis value for `O=C1[O][Pt]2([NH][C@@H]3CCCC[C@H]3[NH]2)[O]C1=O`
3.00 KU

Answer with the recorded kinetic units (KU) of apoptosis of `O=C1c2c(O)ccc(O)c2C(=O)c2c(NCCNCCO)ccc(NCCNCCO)c21` only.
2.30 KU

Please give measured kinetic units (KU) of apoptosis of the following entry: `CC(C)C[C@H](NC(=O)[C@H](Cc1ccccc1)NC(=O)c1cnccn1)B(O)O`
3.40 KU

Output measured kinetic units (KU) of apoptosis for this item: `CC(=O)O[C@H]1C(=O)[C@@]2(C)[C@H]([C@H](OC(=O)c3ccccc3)[C@]3(O)C[C@H](OC(=O)[C@H](O)[C@@H](NC(=O)c4ccccc4)c4ccccc4)C(C)=C1C3(C)C)[C@]1(OC(C)=O)CO[C@@H]1C[C@@H]2O`
3.00 KU

Please give the documented kinetic units (KU) of apoptosis of CN(Cc1cnc2nc(N)nc(N)c2n1)c1ccc(C(=O)N[C@@H](CCC(=O)O)C(=O)O)cc1 [Methotrexate]
1.40 KU

Tell me measured kinetic units (KU) of apoptosis for COc1cc([C@@H]2c3cc4c(cc3[C@@H](O[C@@H]3O[C@@H]5CO[C@@H](C)O[C@H]5[C@H](O)[C@H]3O)[C@H]3COC(=O)[C@H]23)OCO4)cc(OC)c1O [Etoposide] please.
2.30 KU

* * *

System: Lung adenocarcinoma (site B)
Assay: MiCK assay, drug-induced apoptosis, Table 4 tumor C2
Details: Table 4 tumor C2: Lung adenocarcinoma (site B); 48 hours with drug
So I've got a bunch of compounds here, and I need their kinetic units (KU) of apoptosis values.
Give just the number in KU; leave the unit off.

Provide Lung adenocarcinoma (site B) kinetic units (KU) of apoptosis reading for Nc1nc2[nH]cc(CCc3ccc(C(=O)N[C@@H](CCC(=O)O)C(=O)O)cc3)c2c(=O)[nH]1 [Alimta, Pemetrexed] .
0.70

Give kinetic units (KU) of apoptosis only, for CC[C@]1(O)C[C@@H]2CN(CCc3c([nH]c4ccccc34)[C@@](C(=O)OC)(c3cc4c(cc3OC)N(C)[C@H]3[C@@](O)(C(=O)OC)[C@H](OC(C)=O)[C@]5(CC)C=CCN6CC[C@]43[C@@H]65)C2)C1 [Vinblastine] , using Lung adenocarcinoma (site B) data.
2.00

// fetch kinetic units (KU) of apoptosis; item: CC(=O)[C@]1(O)Cc2c(O)c3c(c(O)c2[C@@H](O[C@H]2C[C@H](N)[C@H](O)[C@H](C)O2)C1)C(=O)c1ccccc1C3=O [Idarubicin] ; system: Lung adenocarcinoma (site B)
3.00

State, for Lung adenocarcinoma (site B), measured kinetic units (KU) of apoptosis of the compound listed here: N.N.[Cl][Pt][Cl] [Cisplatin]
5.40

State measured kinetic units (KU) of apoptosis of the compound CC[C@]1(O)C[C@H]2CN(CCc3c([nH]c4ccccc34)[C@@](C(=O)OC)(c3cc4c(cc3OC)N(C=O)[C@H]3[C@@](O)(C(=O)OC)[C@H](OC(C)=O)[C@]5(CC)C=CCN6CC[C@]43[C@@H]65)C2)C1 [Vincristine] with Lung adenocarcinoma (site B).
1.60

Jot down kinetic units (KU) of apoptosis (Lung adenocarcinoma (site B)) of CO[C@H]1C[C@@H]2CC[C@@H](C)[C@@](O)(O2)C(=O)C(=O)N2CCCC[C@H]2C(=O)O[C@H]([C@H](C)C[C@@H]2CC[C@@H](OCCO)[C@H](OC)C2)CC(=O)[C@H](C)/C=C(\C)[C@@H](O)[C@@H](OC)C(=O)[C@H](C)C[C@H](C)/C=C/C=C/C=C/1C [Everolimus] .
1.00

* * *

Tested on: Lung adenocarcinoma (site B)
Test: MiCK assay, drug-induced apoptosis, Table 4 tumor C2
Conditions: Table 4 tumor C2: Lung adenocarcinoma (site B); 48 hours with drug
Numbered stars: 1 amine (or outer) side, 2 acyl side, 3 side chain; on linkers, the order of the positions; unused ones are H or OH. Bridge positions count the residues as written; N and C are the ends. Square brackets hold non-standard residues; d marks the D form. Peptide text beside a SMILES is read from it. I, II: the chains in the order shown. Actinocin(9to1) = Cc1c2oc3c(C)ccc(C(=O)[*:1])c3nc-2c(C(=O)[*:2])c(N)c1=O; NMeV = CN[C@H](C(=O)O)C(C)C; Sar = CNCC(=O)O
RECORDED ENDPOINT: kinetic units (KU) of apoptosis
Give the value, in units of KU, as a plain number.

Look up kinetic units (KU) of apoptosis of Cc1c2oc3c(C)ccc(C(=O)N[C@@H]4C(=O)N[C@H](C(C)C)C(=O)N5CCC[C@H]5C(=O)N(C)CC(=O)N(C)[C@@H](C(C)C)C(=O)O[C@@H]4C)c3nc-2c(C(=O)N[C@@H]2C(=O)N[C@H](C(C)C)C(=O)N3CCC[C@H]3C(=O)N(C)CC(=O)N(C)[C@@H](C(C)C)C(=O)O[C@@H]2C)c(N)c1=O [Dactinomycin] (I: T[dV]P[Sar][NMeV] / II: T[dV]P[Sar][NMeV]; ester I:1-I:C, II:1-II:C; linker I:N-II:N via Actinocin(9to1)) and report it.
3.00

Report kinetic units (KU) of apoptosis for COc1cccc2c1C(=O)c1c(O)c3c(c(O)c1C2=O)C[C@@](O)(C(=O)CO)C[C@@H]3O[C@H]1C[C@H](N)[C@@H](O)[C@H](C)O1 [Epirubicin]
3.20

Answer with the recorded kinetic units (KU) of apoptosis of `CC(C)C[C@H](NC(=O)[C@H](Cc1ccccc1)NC(=O)c1cnccn1)B(O)O` only.
1.80

In one line, give reported kinetic units (KU) of apoptosis of the entry `CCC1=C[C@@H]2CN(C1)Cc1c([nH]c3ccccc13)[C@@](C(=O)OC)(c1cc3c(cc1OC)N(C)[C@H]1[C@@](O)(C(=O)OC)[C@H](OC(C)=O)[C@]4(CC)C=CCN5CC[C@]31[C@@H]54)C2` .
2.50

* * *

System: NSCLC, multi-focal, recurrent adenocarcinoma (site B)
Test: MiCK assay, drug-induced apoptosis, Table 3 tumor C2
Assay type: cell-based, human
Settings: Table 3 tumor C2: NSCLC, multi-focal, recurrent adenocarcinoma (site B); 48 hours with drug
RECORDED ENDPOINT: kinetic units (KU) of apoptosis
Give a bare numeral; the unit KU is implied.

Please give the documented kinetic units (KU) of apoptosis of CC[C@@]1(O)C(=O)OCc2c1cc1n(c2=O)Cc2cc3c(CN(C)C)c(O)ccc3nc2-1 [Topotecan]
0.00

Supply reported kinetic units (KU) of apoptosis belonging to this compound: Nc1ccn([C@@H]2O[C@H](CO)[C@@H](O)C2(F)F)c(=O)n1 [Gemcitabine]
0.70

# return recorded kinetic units (KU) of apoptosis for input N.N.[Cl][Pt][Cl] [Cisplatin]
2.10

Give reported kinetic units (KU) of apoptosis value for CC[C@]1(O)C[C@H]2CN(CCc3c([nH]c4ccccc34)[C@@](C(=O)OC)(c3cc4c(cc3OC)N(C=O)[C@H]3[C@@](O)(C(=O)OC)[C@H](OC(C)=O)[C@]5(CC)C=CCN6CC[C@]43[C@@H]65)C2)C1 [Vincristine]
0.40

Please give the documented kinetic units (KU) of apoptosis of N.N.O=C([O-])C1(C(=O)[O-])CCC1.[Pt+2] [Carboplatin]
1.20

Quick one: give measured kinetic units (KU) of apoptosis for CCC1=C[C@@H]2CN(C1)Cc1c([nH]c3ccccc13)[C@@](C(=O)OC)(c1cc3c(cc1OC)N(C)[C@H]1[C@@](O)(C(=O)OC)[C@H](OC(C)=O)[C@]4(CC)C=CCN5CC[C@]31[C@@H]54)C2 [Vinorelbine]
0.00

Hello, please tell me recorded kinetic units (KU) of apoptosis for this one: COc1cccc2c1C(=O)c1c(O)c3c(c(O)c1C2=O)C[C@@](O)(C(=O)CO)C[C@@H]3O[C@H]1C[C@H](N)[C@H](O)[C@H](C)O1 [Doxorubicin]
1.50

Consider the compound CC(=O)O[C@@]12CO[C@@H]1C[C@H](O)[C@@]1(C)C(=O)[C@H](O)C3=C(C)[C@@H](OC(=O)[C@H](O)[C@@H](NC(=O)OC(C)(C)C)c4ccccc4)C[C@@](O)([C@@H](OC(=O)c4ccccc4)[C@H]21)C3(C)C [Docetaxel] and give its recorded kinetic units (KU) of apoptosis.
2.30

Identify measured kinetic units (KU) of apoptosis associated with CC(=O)O[C@H]1C(=O)[C@@]2(C)[C@H]([C@H](OC(=O)c3ccccc3)[C@]3(O)C[C@H](OC(=O)[C@H](O)[C@@H](NC(=O)c4ccccc4)c4ccccc4)C(C)=C1C3(C)C)[C@]1(OC(C)=O)CO[C@@H]1C[C@@H]2O [Paclitaxel]
1.00

State, in one line, measured kinetic units (KU) of apoptosis of CCc1c2c(nc3ccc(OC(=O)N4CCC(N5CCCCC5)CC4)cc13)-c1cc3c(c(=O)n1C2)COC(=O)[C@]3(O)CC [Irinotecan]
0.30
